# Target Desc: SARS-CoV-2 spike protein (wild-type) on VSV pseudovirus (SARS-CoV-2), P0DTC2
Listed next: entries and their corresponding IC90 (pVNT, GFP-positive infected cells).
Express the result in µg/ml but write the number alone.

Some entries whose results are on file:
P043.A.00092.C12 (antibody) heavy chain: QEELKETGGGLVQPGGSLTLSCKASGFDFSSYYMSWVRQAPGKGLEWIGVIYASKGSTDYASWVNGRFTISSDNAQNTVDLQMNSLTAADTATYYCARSKRFYTYGYAGYAYAHYYYGMDLWGPGTLVTVSS light chain: AIQMTQSPSSLAASVGDTVTITCKASEDIGYGLNWYQQKLGIAPKLLIYGADTLESGVPSRFSGSGSETDYTLTISSVQAEDAGIYYCQQGYSTPLTFGAGTKVEIK    3.79
P043.A.00017.E04 (antibody) heavy chain: QSVEESGGRLVTPGTPLTLTCTVSGFSLNNYAMNWVRQAPGKGLEWIGIISSSGNTYYANWAKGRFTISKTSTTVDLKITSPTTEDTATYFCARDSYPGYSPYYGMDPWGPGTLVTVSS light chain: AIQMTQSPSSLAASVGDTVTITCKASEDIAYGLNWYQQKLGITPKLLIYGANTLESGVPSRFSGSGSETHYTLTISSVQAEDAGIYYCQQGYNTPPTFGAGTKVEIK    5.35
P043.A.00047.H08 (protein sample ID 447) (antibody, V domains shown) VH: QSLEESGGDLVKPGASLTLTCTASGFSFSSDGMCWVRQAPGKGLEWIACIAAGSSGSTYYATWAQGRFTISKSSSTTVTLQMTSLTAADTATYFCAGEDYTGNNYYALWGPGTLVTVSS VL: AIDMTQTPSPVSAVVGDTVTINCQASENIYSFLAWYQQKPGQPPKLLIYFASKLASGVPSRFKGSGSGTQFTLTISDVHSDDAAIYYCQQTGTYSDADNTFGGGTEVVVK    18.2

// IC90 (pVNT, GFP-positive infected cells) lookup, binder = P043.A.00095.D06 (protein sample ID 470) (antibody, V domains shown) VH: QEQLEESGGDLVKPEGSLTLTCTASGFSFSSNYWICWVRQAPGKGLEWIGCIYIGSGDTYYASWAKGRFTISKTSSTTVTLQMTSLTAADTATYFCARSYTPGSYYNMNLWGPGTLVTVSS VL: DVVMTQTPSSVSAAVGGTVTINCQASQQISNELSWYQQKSGQPPKLLIYDASDLASGVPSRFKGSGSGTEFTLTISDLESADAATYYCQSTGGASSDGNAFGGGTEVVVK , result: 2.28
